Assay Summary: Absorption characteristics: transmission spectrum of near-infrared absorbing layer of NIR filter (UV-visible spectrophotometer)
Type: physicochemical
Cond: transparent resin polycarbonate SP3810, nd(B) 1.63, film thickness 1.0 μm
Value Type: λmax (nm)
One number for each entry, in nm.

Some solved cases for reference:
• CCCCC(CC)C(=O)Nc1cc2c(cc1C1=C([O-])C(=c3cc4c(cc3NC(=O)C(CC)CCCC)=[N+](C)C(C)C4(C)C)C1=O)C(C)(C)C(C)N2C (stereo not drawn) = 706
• CCCCCCCCCCCC(=O)Nc1cc2c(cc1C1=C([O-])C(=c3cc4c(cc3NC(=O)CCCCCCCCCCC)=[N+](C)C(C)C4(C)C)C1=O)C(C)(C)C(C)N2C (stereo not drawn) [Example A11-25, reference compound] = 710
• Cc1ccc(C)c(OCCCC(C)(C)C(=O)Nc2cc3c(cc2C2=C([O-])C(=c4cc5c(cc4NC(=O)C(C)(C)CCCOc4cc(C)ccc4C)=[N+](C)C(C)C5(C)C)C2=O)C(C)(C)C(C)N3C)c1 (stereo not drawn) = 700
• CCCC(CCC)C(=O)Nc1cc2c(cc1C1=C([O-])C(=c3cc4c(cc3NC(=O)C(CCC)CCC)=[N+](C)C(C)C4(C)C)C1=O)C(C)(C)C(C)N2C (stereo not drawn) = 706
• CCCCC(CC)C(=O)Nc1cc2c(cc1C1=C([O-])C(=c3cc4c(cc3NC(=O)C(CC)CCCC)=[N+](C(C)C)C(C)C4(C)C)C1=O)C(C)(C)C(C)N2C(C)C (stereo not drawn) = 712
• CC(CCC(C(=O)Nc1cc2c(cc1C1=C([O-])C(=c3cc4c(cc3NC(=O)C(CCC(C)CC(C)(C)C)C(C)CC(C)(C)C)=[N+](C)C(C)C4(C)C)C1=O)C(C)(C)C(C)N2C)C(C)CC(C)(C)C)CC(C)(C)C (stereo not drawn) = 705
• CCCC(C)(C)C(=O)Nc1cc2c(cc1C1=C([O-])C(=c3cc4c(cc3NC(=O)C(C)(C)CCC)=[N+](C)C(C)C4(C)C)C1=O)C(C)(C)C(C)N2C (stereo not drawn) = 700
• CC(=O)Nc1cc2c(cc1C1=C([O-])C(=c3cc4c(cc3NC(C)=O)=[N+](C)C(C)C4(C)C)C1=O)C(C)(C)C(C)N2C (stereo not drawn) [Example A11-20, reference compound] = 710

So, CCCCCCCC(=O)Nc1cc2c(cc1C1=C([O-])C(=c3cc4c(cc3NC(=O)CCCCCCC)=[N+](C)C(C)C4(C)C)C1=O)C(C)(C)C(C)N2C (stereo not drawn) [Example A11-24, reference compound] ? Its λmax was 710

----------
I'd appreciate it if you could supply Is value (nd(B)×(λa-λc)) values for the items below.
Assay Summary: Absorption characteristics: transmission spectrum of near-infrared absorbing layer of NIR filter (UV-visible spectrophotometer)
Format: physicochemical
Cond: transparent resin polycarbonate EP5000, nd(B) 1.63, film thickness 2.4 μm
Answers are plain numbers.

- CCCC(CCC)C(=O)Nc1cc2c(cc1C1=C([O-])C(=c3cc4c(cc3NC(=O)C(CCC)CCC)=[N+](C)C(C)C4(C)C)C1=O)C(C)(C)C(C)N2C (stereo not drawn): 111.0
- CCCCC(CC)C(=O)Nc1cc2c(cc1C1=C([O-])C(=c3cc4c(cc3NC(=O)C(CC)CCCC)=[N+](C)C(C)C4(C)C)C1=O)C(C)(C)C(C)N2C (stereo not drawn): 112.6

So, CCCCCCCCCCCC(=O)Nc1cc2c(cc1C1=C([O-])C(=c3cc4c(cc3NC(=O)CCCCCCCCCCC)=[N+](C)C(C)C4(C)C)C1=O)C(C)(C)C(C)N2C (stereo not drawn) [Example A11-25, reference compound] ? Its Is value (nd(B)×(λa-λc)) was 120.8

----------
Assay Summary: Solubility of dye to organic solvent
Type: physicochemical
Cond: cyclohexanone, 50° C.; mass % of the dye to the mass of the entire solution
Value Type: Solubility to organic solvent: Cyclohexanone (%< mass %)
Answers are plain numbers, in %< mass %.

• CC(CCC(C(=O)Nc1cc2c(cc1C1=C([O-])C(=c3cc4c(cc3NC(=O)C(CCC(C)CC(C)(C)C)C(C)CC(C)(C)C)=[N+](C)C(C)C4(C)C)C1=O)C(C)(C)C(C)N2C)C(C)CC(C)(C)C)CC(C)(C)C (centres unmarked) = 10

So, CCN1c2cc(NC(=O)C(C)(C)CCCOc3cc(C)ccc3C)c(C3=C([O-])C(=c4cc5c(cc4NC(=O)C(C)(C)CCCOc4cc(C)ccc4C)=[N+](CC)C(C)C5(C)C)C3=O)cc2C(C)(C)C1C (centres unmarked) ? Its Solubility to organic solvent: Cyclohexanone was 10

----------
Assay Summary: Absorption characteristics: transmission spectrum of near-infrared absorbing layer of NIR filter (UV-visible spectrophotometer)
Type: physicochemical
Cond: transparent resin acrylic resin BR50, nd(B) 1.56, film thickness 2.3 μm
I'd appreciate it if you could supply λa − λc values for the items below.
Answers are plain numbers, in nm.

Some solved cases for reference:
- CCCCCCCC(=O)Nc1cc2c(cc1C1=C([O-])C(=c3cc4c(cc3NC(=O)CCCCCCC)=[N+](C)C(C)C4(C)C)C1=O)C(C)(C)C(C)N2C (centres unmarked) [Example A11-24, reference compound]: 85
- CC(=O)Nc1cc2c(cc1C1=C([O-])C(=c3cc4c(cc3NC(C)=O)=[N+](C)C(C)C4(C)C)C1=O)C(C)(C)C(C)N2C (centres unmarked) [Example A11-20, reference compound]: 91
- CCCCC(CC)C(=O)Nc1cc2c(cc1C1=C([O-])C(=c3cc4c(cc3NC(=O)C(CC)CCCC)=[N+](C(C)C)C(C)C4(C)C)C1=O)C(C)(C)C(C)N2C(C)C (centres unmarked) [Example A11-7]: 65

For every item in the list below, what is its measured λa − λc?
1. CCCC(C)(C)C(=O)Nc1cc2c(cc1C1=C([O-])C(=c3cc4c(cc3NC(=O)C(C)(C)CCC)=[N+](C)C(C)C4(C)C)C1=O)C(C)(C)C(C)N2C (centres unmarked) [Example A11-14]
2. CCCCCCCCCCCC(=O)Nc1cc2c(cc1C1=C([O-])C(=c3cc4c(cc3NC(=O)CCCCCCCCCCC)=[N+](C)C(C)C4(C)C)C1=O)C(C)(C)C(C)N2C (centres unmarked) [Example A11-25, reference compound]

**Result**
71
83

----------
I'd appreciate it if you could supply λa − λc values for the items below.
Assay Summary: Absorption characteristics: transmission spectrum of near-infrared absorbing layer of NIR filter (UV-visible spectrophotometer)
Type: physicochemical
Cond: transparent resin polycarbonate EP5000, nd(B) 1.63, film thickness 2.4 μm
Give bare numbers, in nm.

For every item in the list below, what is its measured λa − λc?
1. CC(CCC(C(=O)Nc1cc2c(cc1C1=C([O-])C(=c3cc4c(cc3NC(=O)C(CCC(C)CC(C)(C)C)C(C)CC(C)(C)C)=[N+](C)C(C)C4(C)C)C1=O)C(C)(C)C(C)N2C)C(C)CC(C)(C)C)CC(C)(C)C (centres unmarked)
2. CCCCC(CC)C(=O)Nc1cc2c(cc1C1=C([O-])C(=c3cc4c(cc3NC(=O)C(CC)CCCC)=[N+](C)C(C)C4(C)C)C1=O)C(C)(C)C(C)N2C (centres unmarked)
3. Cc1ccc(C)c(OCCCC(C)(C)C(=O)Nc2cc3c(cc2C2=C([O-])C(=c4cc5c(cc4NC(=O)C(C)(C)CCCOc4cc(C)ccc4C)=[N+](C)C(C)C5(C)C)C2=O)C(C)(C)C(C)N3C)c1 (centres unmarked)
4. CC(=O)Nc1cc2c(cc1C1=C([O-])C(=c3cc4c(cc3NC(C)=O)=[N+](C)C(C)C4(C)C)C1=O)C(C)(C)C(C)N2C (centres unmarked) [Example A11-20, reference compound]
5. CCCC(C)(C)C(=O)Nc1cc2c(cc1C1=C([O-])C(=c3cc4c(cc3NC(=O)C(C)(C)CCC)=[N+](C)C(C)C4(C)C)C1=O)C(C)(C)C(C)N2C (centres unmarked)

**Result**
69
69
68
68
69

----------
Assay Summary: Absorption characteristics: transmission spectrum of near-infrared absorbing layer of NIR filter (UV-visible spectrophotometer)
Type: physicochemical
Cond: transparent resin polycarbonate EP5000, nd(B) 1.63, film thickness 2.4 μm
Value Type: λc (nm)
Answers are plain numbers, in nm.

Some solved cases for reference:
* CC(=O)Nc1cc2c(cc1C1=C([O-])C(=c3cc4c(cc3NC(C)=O)=[N+](C)C(C)C4(C)C)C1=O)C(C)(C)C(C)N2C (stereo not drawn) [Example A11-20, reference compound] | 618
* CCCC(C)(C)C(=O)Nc1cc2c(cc1C1=C([O-])C(=c3cc4c(cc3NC(=O)C(C)(C)CCC)=[N+](C)C(C)C4(C)C)C1=O)C(C)(C)C(C)N2C (stereo not drawn) [Example A11-14] | 620
* CCCC(CCC)C(=O)Nc1cc2c(cc1C1=C([O-])C(=c3cc4c(cc3NC(=O)C(CCC)CCC)=[N+](C)C(C)C4(C)C)C1=O)C(C)(C)C(C)N2C (stereo not drawn) [Example A11-1] | 626
* CCCCCCCCCCCC(=O)Nc1cc2c(cc1C1=C([O-])C(=c3cc4c(cc3NC(=O)CCCCCCCCCCC)=[N+](C)C(C)C4(C)C)C1=O)C(C)(C)C(C)N2C (stereo not drawn) [Example A11-25, reference compound] | 619
* CCCCCCCC(=O)Nc1cc2c(cc1C1=C([O-])C(=c3cc4c(cc3NC(=O)CCCCCCC)=[N+](C)C(C)C4(C)C)C1=O)C(C)(C)C(C)N2C (stereo not drawn) [Example A11-24, reference compound] | 620

For every item in the list below, what is its measured λc?
1. CC(CCC(C(=O)Nc1cc2c(cc1C1=C([O-])C(=c3cc4c(cc3NC(=O)C(CCC(C)CC(C)(C)C)C(C)CC(C)(C)C)=[N+](C)C(C)C4(C)C)C1=O)C(C)(C)C(C)N2C)C(C)CC(C)(C)C)CC(C)(C)C (stereo not drawn) [Example A11-4]
2. Cc1ccc(C)c(OCCCC(C)(C)C(=O)Nc2cc3c(cc2C2=C([O-])C(=c4cc5c(cc4NC(=O)C(C)(C)CCCOc4cc(C)ccc4C)=[N+](C)C(C)C5(C)C)C2=O)C(C)(C)C(C)N3C)c1 (stereo not drawn) [Example A11-13]
3. CCCCC(CC)C(=O)Nc1cc2c(cc1C1=C([O-])C(=c3cc4c(cc3NC(=O)C(CC)CCCC)=[N+](C(C)C)C(C)C4(C)C)C1=O)C(C)(C)C(C)N2C(C)C (stereo not drawn) [Example A11-7]
4. CCCCC(CC)C(=O)Nc1cc2c(cc1C1=C([O-])C(=c3cc4c(cc3NC(=O)C(CC)CCCC)=[N+](C)C(C)C4(C)C)C1=O)C(C)(C)C(C)N2C (stereo not drawn) [Example A11-2]

**Result**
1: 624; 2: 621; 3: 636; 4: 625
